IC50 data for Glutamate receptor ionotropic, NMDA 1 (Rattus norvegicus, UniProt P35439) follow.

1) CN(C(=O)CC1c2ccc(Cl)cc2NC(=O)C1[N+](=O)[O-])c1ccccc1 (stereo not drawn) : 1.84 µM

Bench note, Glutamate receptor ionotropic, NMDA 1 (Rattus norvegicus, UniProt P35439): entry COC(=O)CC1CC(=O)Nc2cc(Cl)ccc21 (stereo not drawn) , its IC50 = > 100 µM

Known value: Glutamate receptor ionotropic, NMDA 1 (Rattus norvegicus, UniProt P35439) IC50 of the molecule COC(=O)CC1c2ccc(Cl)cc2NC(=O)C1S(=O)(=O)c1ccc([N+](=O)[O-])cc1 (stereo not drawn) equals > 100 µM

Bench note, Glutamate receptor ionotropic, NMDA 1 (Rattus norvegicus, UniProt P35439): COC(=O)CC1c2ccc(Cl)cc2NC(=O)C1C(=O)OC (stereo not drawn) , IC50 reads > 100 µM

Simply: COC(=O)CC1c2ccc(Cl)cc2NC(=O)C1C#N (stereo not drawn) , Glutamate receptor ionotropic, NMDA 1 (Rattus norvegicus, UniProt P35439), IC50 = 12 µM

Reported IC50 (Glutamate receptor ionotropic, NMDA 1 (Rattus norvegicus, UniProt P35439)) for entry CNC(=O)CC1c2ccc(Cl)cc2NC(=O)C1[N+](=O)[O-] (stereo not drawn) is 12.4 µM

Entry COC(=O)CC1c2ccc(Cl)cc2NC(=O)C1S(C)(=O)=O (stereo not drawn) , Glutamate receptor ionotropic, NMDA 1 (Rattus norvegicus, UniProt P35439) data, IC50 value: > 100 µM

Lab note: molecule COC(=O)CC1c2ccc(Cl)cc2NC(=O)C1S(=O)(=O)c1ccccc1 (stereo not drawn) tested on Glutamate receptor ionotropic, NMDA 1 (Rattus norvegicus, UniProt P35439); recorded IC50 was > 100 µM

###

- assay details: pKa value was determined; Value ranges from 5-6
- Type: physicochemical
measured metric: pKa

Looking up COC(=O)CC1c2ccc(Cl)cc2NC(=O)C1[N+](=O)[O-] (stereo unspecified) , I found its pKa recorded as ~5

###

- assay details: pKa value was determined
- Assay type: physicochemical
measured metric: pKa

1. COC(=O)CC1c2ccc(Cl)cc2NC(=O)C1S(=O)(=O)c1ccc([N+](=O)[O-])cc1 (stereo unspecified) : 9.9
2. COC(=O)CC1c2ccc(Cl)cc2NC(=O)C1C#N (stereo unspecified) : 10.2
3. COC(=O)CC1c2ccc(Cl)cc2NC(=O)C1S(=O)(=O)c1ccccc1 (stereo unspecified) : 10.8

###

Overview of recorded pKa for various molecules
- assay details: pKa value was determined
- Format: physicochemical

Completed entries (count: 2):
1. COC(=O)CC1c2ccc(Cl)cc2NC(=O)C1S(C)(=O)=O (stereo not drawn) : > 11
2. COC(=O)CC1c2ccc(Cl)cc2NC(=O)C1C(=O)OC (stereo not drawn) : > 11

Now examine the next entry.
Recorded pKa (molecule COC(=O)CC1c2ccc(Cl)cc2NC(=O)C1C(=O)c1ccccc1 (stereo not drawn) ): ~9
